# Test system: Vero E6
# ASSAY TEXT: cell viability relative to DMSO; higher = less toxic
# COND: 72 h; 10000 nM
READOUT NAME: cell viability (%)
Give your result in % as a bare value.

Ask | Return reported cell viability; argument: CNC(=O)CN(CCN(CCN(CC(=O)[O-])CC(=O)NC)CC(=O)[O-])CC(=O)[O-].[Gd+3] [gadodiamide]
Reply | 94.3

Ask | Return reported cell viability; argument: OB1OCc2cc(F)ccc21 [tavaborole]
Reply | 112

Ask | Return reported cell viability; argument: C[C@@H](c1nc(-c2ccc(C#N)cc2)cs1)[C@](O)(Cn1cncn1)c1ccc(F)cc1F [ravuconazole]
Reply | 98.6

Ask | Return reported cell viability; argument: CCC(COC(=O)c1cc(OC)c(OC)c(OC)c1)(c1ccccc1)N(C)C (centres undefined) [trimebutine]
Reply | 98.2

Ask | Return reported cell viability; argument: CN(Cc1cc(Br)cc(Br)c1N)C1CCCCC1 [bromhexine]
Reply | 103

Ask | Return reported cell viability; argument: Cc1[nH]c2ccccc2c1CCNCc1ccc(/C=C/C(=O)NO)cc1 [panobinostat]
Reply | -0.5

Ask | Return reported cell viability; argument: CCn1c2ccccc2c2cc(CNC)ccc21 [PhiKan-083]
Reply | 90.8

Ask | Return reported cell viability; argument: CN(C)[C@@H]1C(O)=C(C(N)=O)C(=O)[C@@]2(O)C(O)=C3C(=O)c4c(O)ccc(Cl)c4[C@@H](O)[C@H]3C[C@@H]12 [demeclocycline]
Reply | 91

Ask | Return reported cell viability; argument: NC1=NCC2c3ccccc3Cc3ccccc3N12 (centres undefined) [epinastine]
Reply | 99.5

Ask | Return reported cell viability; argument: Nc1nnc(Sc2ncc([N+](=O)[O-])s2)s1 [SU3327]
Reply | 1.4

Ask | Return reported cell viability; argument: "COc1cccc(-c2cc(=O)c3ccccc3o2)c1N"
Reply | 92

Ask | Return reported cell viability; argument: COC(=O)C1=C(C)NC(C)=C(C(=O)OC)C1c1ccccc1[N+](=O)[O-] [nifedipine]
Reply | 94.9

Ask | Return reported cell viability; argument: Oc1cc2c(cc1O)CN(C(=S)NCCc1ccc(Cl)cc1)CCC2 [capsazepine]
Reply | 98.8

Ask | Return reported cell viability; argument: Cc1ncc([N+](=O)[O-])n1CC(O)CN1CCOCC1 (centres undefined) [morinidazole]
Reply | 101

Ask | Return reported cell viability; argument: Cc1nn(C)c2nc(NNC(=O)Nc3cc(Cl)nc(Cl)c3)cc(C(C)C)c12 [JTE-013]
Reply | 93.9

Ask | Return reported cell viability; argument: NS(=O)(=O)c1cc(C2(O)NC(=O)c3ccccc32)ccc1Cl (centres undefined) [chlorthalidone]
Reply | 97.3

Ask | Return reported cell viability; argument: O[C@H]1[C@H](O)[C@@H](O)[C@H](O)[C@@H](O)[C@H]1O [inositol]
Reply | 99.5

Ask | Return reported cell viability; argument: Clc1ccc(C(c2ccc(Cl)cc2)C(Cl)(Cl)Cl)cc1 [4,4'-DDT]
Reply | 99.9

Ask | Return reported cell viability; argument: O=C(O)Cn1nnc(-c2cc(N3CCC(Oc4cc(F)ccc4Br)CC3)no2)n1 [MK-8245]
Reply | 86.3

Ask | Return reported cell viability; argument: COc1ccc(CCN2CCN(CCCc3ccccc3)CC2)cc1OC [cutamesine]
Reply | 95.6

Ask | Return reported cell viability; argument: Nc1ncnc2c1ncn2[C@@H]1O[C@H](COP(=O)(O)O)[C@@H](O)[C@H]1O [adenosine-phosphate]
Reply | 102

Ask | Return reported cell viability; argument: "CCCOCCn1c(=O)c(N2CCN(CCO)CC2)nc2cnc(-c3ccc(OC)nc3)cc21"
Reply | 92.8

Ask | Return reported cell viability; argument: C[C@@H]1CN(c2c(F)c(F)c3c(=O)c(C(=O)O)cn(C4CC4)c3c2F)C[C@H](C)N1 [orbifloxacin]
Reply | 94.5

Ask | Return reported cell viability; argument: CN(C)c1ccc(/C=C2\CCCN=C2c2cccnc2)cc1 [DMAB-anabaseine]
Reply | 91.5

Ask | Return reported cell viability; argument: Fc1ccc(C(c2ccccc2)(c2ccccc2F)n2ccnc2)cc1 (centres undefined) [flutrimazole]
Reply | 99.2

Ask | Return reported cell viability; argument: O=C1c2ccccc2C(Cc2ccncc2)(Cc2ccncc2)c2ccccc21 [XE-991]
Reply | 91.1

Ask | Return reported cell viability; argument: CC(C)(C)NC[C@H](O)COc1nsnc1N1CCOCC1 [timolol]
Reply | 104

Ask | Return reported cell viability; argument: "O=C(Nc1ccncc1)c1cc([N+](=O)[O-])ccc1Cl"
Reply | 93.1

Ask | Return reported cell viability; argument: C/C(=N\c1ccccc1N)c1c(C)cc(=O)n(O)c1O [SUN-B-8155]
Reply | 104

---

# System: Caco-2
# ASSAY TEXT: drug sensitivity score (DSS) for viability; higher = more toxic; extreme values may be limits of the assay
# COND: 72 h
READOUT NAME: drug sensitivity score
// no unit string in output, number only

Ask | Return reported drug sensitivity score; argument: "CC(C)c1cnn2c(NCc3ccccc3)cc(NCCCCCCN)nc12"
Reply | 1.7

Ask | Return reported drug sensitivity score; argument: "CC[C@@H](CO)NC(=O)[C@@H]1C=C2c3cccc4[nH]cc(c34)C[C@H]2N(C)C1"
Reply | 0

Ask | Return reported drug sensitivity score; argument: "COc1c(C)cnc(Cn2cc(C#CCC(C)(C)O)c3c(Cl)nc(N)nc32)c1C"
Reply | 14.2

Ask | Return reported drug sensitivity score; argument: "CCn1c2ccccc2c2cc(CNC)ccc21"
Reply | 0

Ask | Return reported drug sensitivity score; argument: "O=C1C=CC(=O)C2=C1C1c3ccccc3C2c2ccccc21"
Reply | 0

Ask | Return reported drug sensitivity score; argument: "C[C@@H](NC(=O)c1ncnc(N)c1Cl)c1ncc(C(=O)Nc2cc(C(F)(F)F)c(Cl)cn2)s1"
Reply | 0

Ask | Return reported drug sensitivity score; argument: "Clc1ccc(C(c2ccc(Cl)cc2)C(Cl)(Cl)Cl)cc1"
Reply | 0

Ask | Return reported drug sensitivity score; argument: "CC[C@H]1OC(=O)[C@@](C)(F)C(=O)[C@H](C)[C@@H](O[C@@H]2O[C@H](C)C[C@H](N(C)C)[C@H]2O)[C@](C)(OC)C[C@@H](C)C(=O)[C@H](C)[C@H]2N(CCCCn3cc(-c4cccc(N)c4)nn3)C(=O)O[C@]12C"
Reply | 0

Ask | Return reported drug sensitivity score; argument: "CNC(=O)N(C)N=O"
Reply | 0

Ask | Return reported drug sensitivity score; argument: NC1=NCC2c3ccccc3Cc3ccccc3N12 (configuration not stated) [epinastine]
Reply | 0

Ask | Return reported drug sensitivity score; argument: "O=C(O)/C=C/c1ccc(Cn2ccnc2)cc1"
Reply | 0

Ask | Return reported drug sensitivity score; argument: "N#Cc1ccc(C(c2ccc(C#N)cc2)n2cncn2)cc1"
Reply | 0

Ask | Return reported drug sensitivity score; argument: "C[C@]12CC[C@H]3[C@@H](CCC4=CC(=O)CC[C@@]43C)[C@@H]1CC[C@@H]2C(=O)CO"
Reply | 0.2

Ask | Return reported drug sensitivity score; argument: CC[N+](C)(CC)CCC[n+]1c(-c2ccccc2)c2cc(N)ccc2c2ccc(N)cc21 [propidium-iodide]
Reply | 1.5

Ask | Return reported drug sensitivity score; argument: NS(=O)(=O)c1ccc(C(=O)O)cc1 [carzenide]
Reply | 0

Ask | Return reported drug sensitivity score; argument: "COC(=O)C(Cc1ccc(OCCn2c(=O)sc3cc(C(=O)c4ccccc4)ccc32)cc1)C(=O)OC"
Reply | 0

Ask | Return reported drug sensitivity score; argument: "CC(C)(CO)c1cc2cc(NC(=O)C3(c4ccc5c(c4)OC(F)(F)O5)CC3)c(F)cc2n1C[C@@H](O)CO"
Reply | 0

---

# System: Vero E6
# ASSAY TEXT: cell viability relative to DMSO; higher = less toxic
# COND: 72 h; 100 nM
Provide the reported cell viability of each item.
Give your result in % as a bare value.

Ask | Return reported cell viability; argument: "C#C[C@]1(O)CC[C@H]2[C@@H]3CCC4=CC(=O)CC[C@]4(C)[C@H]3CC[C@@]21C"
Reply | 105

Ask | Return reported cell viability; argument: "COc1cc2c3cc1Oc1cc(ccc1O)C[C@@H]1c4c(cc(OC)c(O)c4Oc4ccc(cc4)C[C@@H]3N(C)CC2)CC[N+]1(C)C"
Reply | 107

Ask | Return reported cell viability; argument: "Nc1nc2[nH]cc(CCc3ccc(C(=O)N[C@@H](CCC(=O)O)C(=O)O)cc3)c2c(=O)[nH]1"
Reply | 91.6

Ask | Return reported cell viability; argument: Fc1ccc(C(c2ccccc2)(c2ccccc2F)n2ccnc2)cc1 (stereo not given)
Reply | 108

Ask | Return reported cell viability; argument: [O-][n+]1cccc(CO)c1 [mepiroxol]
Reply | 89.3

Ask | Return reported cell viability; argument: "COc1cc(CN(CCN)C(=O)c2cccs2)ccc1OCc1ccccc1"
Reply | 97.2

Ask | Return reported cell viability; argument: "C[C@@H]1CN(c2c(F)c(F)c3c(=O)c(C(=O)O)cn(C4CC4)c3c2F)C[C@H](C)N1"
Reply | 101

Ask | Return reported cell viability; argument: "CCOC(=O)Nc1ccc(NCc2ccc(F)cc2)nc1N"
Reply | 98.2

Ask | Return reported cell viability; argument: CCc1ccc(C(=O)C(C)CN2CCCCC2)cc1 (stereo not given)
Reply | 106

Ask | Return reported cell viability; argument: "C1COC(NC(C2CC2)C2CC2)=N1"
Reply | 95.3

Ask | Return reported cell viability; argument: C[C@@H]1CCC[C@H](C)N1NC(=O)c1ccc(Cl)c(S(N)(=O)=O)c1 [clopamide]
Reply | 104

Ask | Return reported cell viability; argument: "CCOC(=O)c1ncn2c1[C@@H]1CCCN1C(=O)c1cc(OC)ccc1-2"
Reply | 92.3

Ask | Return reported cell viability; argument: "COc1ccc(-c2cnc3c(-c4cccc5ncccc45)cnn3c2)cc1"
Reply | 99

Ask | Return reported cell viability; argument: "Cc1[nH]c2ccccc2c1CCNCc1ccc(/C=C/C(=O)NO)cc1"
Reply | 70.8

Ask | Return reported cell viability; argument: "Cc1cc(C)c(NC(=O)N(Cc2ccc3c(c2)Cc2ccccc2-3)C2CCCCCC2)c(C)c1"
Reply | 91.9

Ask | Return reported cell viability; argument: "COc1cccc(-c2cc(=O)c3ccccc3o2)c1N"
Reply | 105

Ask | Return reported cell viability; argument: CCC(COC(=O)c1cc(OC)c(OC)c(OC)c1)(c1ccccc1)N(C)C (stereo not given)
Reply | 98.4

Ask | Return reported cell viability; argument: "O=C1OCCN1/N=C/c1ccc([N+](=O)[O-])o1"
Reply | 105

Ask | Return reported cell viability; argument: Cc1ccc(-c2n[nH]c3c2C(c2cccc(O)c2)N(c2ccc(C(=O)O)cc2)C3=O)cc1 (stereo not given)
Reply | 101

Ask | Return reported cell viability; argument: CSCC1CN(/N=C/c2ccc([N+](=O)[O-])o2)C(=O)O1 (stereo not given)
Reply | 89.7

Ask | Return reported cell viability; argument: "O=C(O)c1cccnc1C(=O)O"
Reply | 108

Ask | Return reported cell viability; argument: "CNCCCN1c2ccccc2CCc2ccccc21"
Reply | 97

Ask | Return reported cell viability; argument: "C[N+]1(CCCCC[N+]2(C)CCCC2)CCCC1"
Reply | 102

Ask | Return reported cell viability; argument: Cc1c(C)c2c(c(C)c1O)CCC(C)(COc1ccc(CC3SC(=O)NC3=O)cc1)O2 (stereo not given)
Reply | 101

Ask | Return reported cell viability; argument: "COc1ccc(CCc2nc3cc(-c4c(C)noc4C)ccc3n2C[C@H](C)N2CCOCC2)cc1Cl"
Reply | 89.5

Ask | Return reported cell viability; argument: "COc1cccc(-c2ccc([C@@H](Oc3cc(-c4ccc(C[C@H](N)C(=O)O)cc4)nc(N)n3)C(F)(F)F)cc2)c1"
Reply | 101

Ask | Return reported cell viability; argument: "Cn1cc(C2=C(c3ccc(Cl)cc3Cl)C(=O)NC2=O)c2ccccc21"
Reply | 98.4

Ask | Return reported cell viability; argument: "COc1ccc(-n2[nH]c3c4c(ncc3c2=O)CCCCC4)cc1"
Reply | 100

Ask | Return reported cell viability; argument: "CC[C@H](c1ccc(O)cc1)[C@@H](CC)c1ccc(O)cc1"
Reply | 92.2

Ask | Return reported cell viability; argument: "Cn1cc(C(=O)C(=O)N[C@H]2CN3CCC2CC3)c2ccccc21"
Reply | 105

Ask | Return reported cell viability; argument: "C=CC(=O)Nc1cccc(Oc2nc(Nc3ccc(N4CCN(C)CC4)cc3OC)ncc2Cl)c1"
Reply | 103

Ask | Return reported cell viability; argument: C=CCSCC1Nc2cc(Cl)c(S(N)(=O)=O)cc2S(=O)(=O)N1 (stereo not given) [althiazide]
Reply | 98.8

Ask | Return reported cell viability; argument: COc1cccc(N(C)C(=S)Oc2ccc3c(c2)CCCC3)n1 [liranaftate]
Reply | 99.6

Ask | Return reported cell viability; argument: "CNC(=O)N(C)N=O"
Reply | 95.4

Ask | Return reported cell viability; argument: Cc1sc2c(c1C)C(c1ccc(Cl)cc1)=N[C@@H](CC(=O)Nc1ccc(OCCOCCOCCOCCNc3cccc4c3C(=O)N(C3CCC(=O)NC3=O)C4=O)cc1)c1nnc(C)n1-2 (stereo not given in full)
Reply | 91
